Experiment: pH stability measurement (UPLC, 0.1 N HCl)
Type: physicochemical
Settings: 0.1 N HCl, pH 1, 24 hours
Protocol: Compounds were provided in 96-well plates and tested in triplicate. Four microliters of a 10 mM stock solution of compound in DMSO were distributed into each of three wells. The plate was stored at or below −20° C. until the day of the analysis. […] Stability in the various buffers was measured by comparing the peak area- % of the analyte in methanol versus the peak area- % of the analyte at the same retention time in 0.1 N HCl buffer in the 24 hr time point injection.

{"columns": ["COMPOUND_SMILES", "% parent remaining (pH = 1, 24 hours) [%]"],
 "data": [
  ["C/C(=C\\C=C\\[C@@H](C)c1ccccn1)[C@H]1OC(=O)C[C@H](O)CC[C@@](C)(O)[C@@H](OC(=O)N2CCN(C)CC2)/C=C/[C@@H]1C", 96],
  ["C/C(=C\\C=C\\[C@@H](C)c1ccccn1)[C@H]1OC(=O)C[C@H](O)CC[C@@](C)(O)[C@@H](OC(=O)N2CCN(C3CCCCCC3)CC2)/C=C/[C@@H]1C", 91],
  ["C/C(=C\\C=C\\[C@@H](C)c1ccccn1)[C@H]1OC(=O)C[C@H](O)CC[C@@](C)(O)[C@@H](OC(=O)N2CCC(N3CCCCC3)CC2)/C=C/[C@@H]1C", 99]
]}
